testSystem: ABCG2 (Homo sapiens)
Construct: membrane vesicles of High Five insect cells overexpressing ABCG2
Type: biochemical
experimentalParameters: membrane vesicles
propertyMeasured: pEC50
API: returns pEC50 as number; meaning -log10 of concentration in mol/L.

Asked: // query pEC50 value for entry CC[C@@]1(O)C(=O)OCc2c1cc1n(c2=O)Cc2cc3c(CN(C)C)c(O)ccc3nc2-1 [topotecan]
Given back: 5.59

* * *

testSystem: ABCG2 (Homo sapiens, UniProt Q9UNQ0)
Construct: membrane vesicles of High Five insect cells overexpressing ABCG2
Sequence (Q9UNQ0 whole entry): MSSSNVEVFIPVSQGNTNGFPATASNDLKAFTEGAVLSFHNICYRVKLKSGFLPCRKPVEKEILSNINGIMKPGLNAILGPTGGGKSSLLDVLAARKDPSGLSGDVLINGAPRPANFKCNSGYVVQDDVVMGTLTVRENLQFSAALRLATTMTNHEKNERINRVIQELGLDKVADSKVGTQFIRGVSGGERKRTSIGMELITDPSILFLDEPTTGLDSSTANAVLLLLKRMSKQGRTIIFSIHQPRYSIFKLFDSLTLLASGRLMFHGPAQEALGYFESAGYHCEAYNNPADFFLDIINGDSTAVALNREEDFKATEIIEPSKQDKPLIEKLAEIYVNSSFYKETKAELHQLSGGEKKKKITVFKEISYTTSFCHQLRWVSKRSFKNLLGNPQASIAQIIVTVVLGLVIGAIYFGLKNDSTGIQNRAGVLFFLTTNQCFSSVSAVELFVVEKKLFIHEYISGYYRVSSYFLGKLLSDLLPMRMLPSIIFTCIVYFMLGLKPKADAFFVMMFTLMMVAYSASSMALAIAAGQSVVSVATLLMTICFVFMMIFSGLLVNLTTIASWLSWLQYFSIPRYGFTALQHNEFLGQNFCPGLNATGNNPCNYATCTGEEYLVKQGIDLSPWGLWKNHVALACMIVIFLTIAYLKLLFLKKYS
assayInfo: vanadate-sensitive ATPase stimulation in membrane vesicles; [3H]-MX efflux from ABCG2-transfected cells
Type: biochemical
propertyMeasured: EC50 (nM)
Express it in nM; write the number only.

Asked: // query EC50 value for entry O=C1c2c(O)ccc(O)c2C(=O)c2c(NCCNCCO)ccc(NCCNCCO)c21
Given back: 2200

* * *

testSystem: ABCG2 (Homo sapiens)
Construct: membrane vesicles of High Five insect cells overexpressing ABCG2
assayInfo: vanadate-sensitive ATPase stimulation in membrane vesicles; also [3H]-mitoxantrone accumulation/efflux inhibition in HEK293/R482 cells
Assay type: biochemical
propertyMeasured: EC50

Asked: // query EC50 value for entry COc1cc(NC(=O)c2ccc(-c3ccc(Cl)cc3)o2)cc(OC)c1
Given back: 718 nM
